# Assay method text: qHTS of pediatric cancer cell lines to identify multiple opportunities for drug repurposing: Confirmatory screen for A673 cells (AID 1347110);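 further: cells exposed to compound for 48 h before the viability read; nearly all actives have a fitted effect of over 65% in size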
# Reported conditions: A673 Ewing sarcoma cell viability; series mostly up to 45.9 µM
Results filed as inconclusive are left out. The source made the active and inactive calls. The call rests on the fitted dose curve; in most records, active means well fitted cell-killing curve with a large enough effect; inconclusive means small, poorly fitted or top-dose-only effect; inactive means flat fitted curve, though single readings scatter.
Assign a class; possible classes are active, inactive

Molecule	Class name
O=C(c1cc(Cc2n[nH]c(=O)c3ccccc23)ccc1F)N1CCN(C(=O)C2CC2)CC1	active
CCN(CC)CCCC(C)Nc1ccnc2cc(Cl)ccc12 (centres undefined)	inactive

Req: Give the logged outcome of this assay for the following molecule: `CNCc1ccc(-c2[nH]c3cc(F)cc4c3c2CCNC4=O)cc1`
Resp: active

Req: Continue with `CO[C@@H]1[C@H](N(C)C(=O)c2ccccc2)C[C@H]2O[C@]1(C)n1c3ccccc3c3c4c(c5c6ccccc6n2c5c31)C(=O)NC4`
Resp: inactive

----------
# Assay method text: Drug repurposing screens with cells derived from glioblastoma tumor samples (AID 1345199); further: on the % scale 0 is the no-effect control and ±100 the full control effect; nearly all actives have a fitted effect of over 40% in size
# Reported conditions: GBM patient neurospheres viability, ATP luminescence, 48 h; at 46 µM (top of the series); tumour line A
Records with an inconclusive call do not appear.
Test readout: activity, negative = cell killing (%)
Response body: numeric value in %, unit text excluded.

Known results for compounds:
Compound	Test readout	Reported value
CCCC(CCC)C(=O)O	activity, negative = cell killing	-15.5
N[C@@H]1CONC1=O	activity, negative = cell killing	-17.4
NC(=O)c1cnccn1	activity, negative = cell killing	-24.5
CCCc1nc2c(C)cc(-c3nc4ccccc4n3C)cc2n1Cc1ccc(-c2ccccc2C(=O)O)cc1	activity, negative = cell killing	-16.9
O=C1CCC(N2C(=O)c3ccccc3C2=O)C(=O)N1 (centres undefined)	activity, negative = cell killing	-6.31
Cc1[nH]c(=O)c(C#N)cc1-c1ccc2nccn2c1	activity, negative = cell killing	-27
CC(C)(C)NCC(O)c1ccc(O)c(CO)c1 (centres undefined)	activity, negative = cell killing	-18.1
Cc1cnc(NC(=O)C2=C(O)c3ccccc3S(=O)(=O)N2C)s1	activity, negative = cell killing	-27.8

Req: Any idea what its activity, negative = cell killing is? The compound is `Clc1cccc(Cl)c1NC1=NCCN1`
Resp: -29.3

Req: Continue with `NC(N)=NC(=O)c1nc(Cl)c(N)nc1N`
Resp: 18.9

Req: Continue with `O=c1[nH]cnc2[nH]ncc12`
Resp: -9.81

Req: Continue with `NCCc1ccc(O)c(O)c1`
Resp: -12.4

Req: Continue with `Cc1[nH]c(=O)c(C#N)cc1-c1ccncc1`
Resp: -23.5

Req: Continue with CC(C[N+](C)(C)C)OC(N)=O (centres undefined)
Resp: -20.4

----------
# Test system: CP260
# Assay method text: qHTS profiling for inhibitors of Plasmodium falciparum proliferation (AID 504749); further: nearly all actives have a fitted effect of over 60% in size
# Reported conditions: P. falciparum in erythrocytes, SYBR Green DNA, 72 h; series mostly up to 28.7 µM
Results filed as inconclusive are left out. Activity calls are given as the source filed them. The call rests on the fitted dose curve; in most records, active means well fitted inhibition curve with a large enough effect; inconclusive means small, poorly fitted or top-dose-only effect; inactive means flat fitted curve, though single readings scatter.
Assign a class; possible classes are active, inactive

Record excerpt, results attached:
Molecule	Class name
CC(C[N+](C)(C)C)OC(N)=O (stereo unspecified)	inactive
CCc1ccc(CCOc2ccc(CC3SC(=O)NC3=O)cc2)nc1 (stereo unspecified)	inactive
OC(CN1CCC(Cc2ccc(F)cc2)CC1)c1ccc(Cl)cc1 (stereo unspecified)	active
CC(C)C[C@H](NC(=O)[C@@H](O)[C@H](N)Cc1ccccc1)C(=O)O	active
CCCc1nc2c(C)cc(-c3nc4ccccc4n3C)cc2n1Cc1ccc(-c2ccccc2C(=O)O)cc1	active

Req: Give the logged outcome of this assay for the following molecule: `NC(=O)c1cnccn1`
Resp: inactive

----------
# Assay method text: qHTS profiling for inhibitors of Plasmodium falciparum (HB3) proliferation (AID 743324);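 further: 100% = DMSO vehicle wells and 0% = artemisinin-treated control wells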
# Reported conditions: Plasmodium falciparum HB3 blood-stage proliferation; at 28.7 µM (top of the series) unless noted
# reported remaining proliferation (% of control), lower = more inhibition; entries follow
Response body: numeric value in %, unit text excluded.

Req: Any idea what its remaining proliferation (% of control), lower = more inhibition is? The compound is `N#Cc1ccc(C(c2ccc(C#N)cc2)n2cncn2)cc1`
Resp: 95.8

----------
# Target or test system: Muscarinic acetylcholine receptor M1 (Rattus norvegicus) (UniProt P08482)
# Sequence (P08482 whole entry, looked up): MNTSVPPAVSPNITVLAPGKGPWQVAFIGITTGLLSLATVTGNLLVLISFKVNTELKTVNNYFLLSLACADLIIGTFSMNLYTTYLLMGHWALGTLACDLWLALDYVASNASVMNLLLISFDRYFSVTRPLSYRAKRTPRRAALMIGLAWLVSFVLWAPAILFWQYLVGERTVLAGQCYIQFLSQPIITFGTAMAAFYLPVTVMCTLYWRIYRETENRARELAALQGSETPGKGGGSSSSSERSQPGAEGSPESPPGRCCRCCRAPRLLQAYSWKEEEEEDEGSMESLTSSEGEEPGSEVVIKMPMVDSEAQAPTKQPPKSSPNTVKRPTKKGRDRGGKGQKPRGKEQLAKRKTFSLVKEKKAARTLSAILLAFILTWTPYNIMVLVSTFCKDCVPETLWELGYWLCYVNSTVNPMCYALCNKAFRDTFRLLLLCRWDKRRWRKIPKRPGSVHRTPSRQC
# Assay method text: qHTS Assay for Antagonists of Acetylcholine Muscarinic M1 Receptor: Measurement of IP-One Response (AID 944); further: nearly all actives have a fitted effect of over 75% in size
# Reported conditions: CHO-M1 cells, IP-One HTRF, antagonist mode; series mostly up to 46.1 µM
Inconclusive results are not listed. Calls of active or inactive are those of the source. Calls follow the shape of the dose curve; as a rule, active = well fitted inhibition curve with a large enough effect; inconclusive = small, poorly fitted or top-dose-only effect; inactive = no such curve, though single readings can be large or run the other way.
Assign a class; possible classes are active, inactive

Compound	Class name
CNC[C@H](O)c1cccc(O)c1	inactive
OC(CN1CCC(Cc2ccc(F)cc2)CC1)c1ccc(Cl)cc1 (stereo not drawn)	active
CC(C)(Sc1ccc(CCN(CCCCC2CCCCC2)C(=O)NC2CCCCC2)cc1)C(=O)O	inactive

Req: Give the logged outcome of this assay for the following compound: `NCCc1ccc(O)c(O)c1`
Resp: inactive

Req: Continue with `O=c1n(CCCN2CCN(c3cccc(Cl)c3)CC2)nc2ccccn12`
Resp: inactive

Req: Continue with `Nc1ccc(S(=O)(=O)Nc2ccnn2-c2ccccc2)cc1`
Resp: inactive

Req: Continue with `Cc1ccc(N(CC2=NCCN2)c2cccc(O)c2)cc1`
Resp: inactive

Req: Continue with `C[C@]12CCC(=O)C=C1CC[C@@H]1[C@@H]2[C@@H](O)C[C@@]2(C)[C@H]1CC[C@]2(O)C(=O)CO`
Resp: inactive

----------
# Test system: MKL-2
# Assay method text: qHTS assay to identify novel small-molecules to repurpose for Merkel cell carcinoma treatment (AID 1296009); further: nearly all actives have a fitted effect of over 60% in size
# Reported conditions: MCC and control cell lines, CellTiter-Glo viability, 72 h; series mostly up to 46 µM
Inconclusive results are not listed. Activity calls are given as the source filed them. The call rests on the fitted dose curve; in most records, active means well fitted inhibition curve with a large enough effect; inconclusive means small, poorly fitted or top-dose-only effect; inactive means flat fitted curve, though single readings scatter.
Assign a class; possible classes are 1 for active, -1 for inactive

Record excerpt, results attached:
Compound	Class name
CN(C)c1ccc(Nc2nc(N)n(C(=O)c3c(F)cccc3F)n2)cc1	-1
CN[C@@H](C)C(=O)N[C@H]1CCCC[C@H]2CC[C@@H](C(=O)N[C@@H](c3ccccc3)c3cn(CCCCc4ccc(CCCCn5cc([C@@H](NC(=O)[C@@H]6CC[C@@H]7CCCC[C@H](NC(=O)[C@H](C)NC)C(=O)N76)c6ccccc6)nn5)cc4)nn3)N2C1=O	1
CCCS(=O)(=O)Nc1ccc(F)c(C(=O)c2c[nH]c3ncc(Cl)cc23)c1F	-1
Cn1cnc2c(F)c(Nc3ccc(Br)cc3Cl)c(C(=O)NOCCO)cc21	-1

Req: Give the logged outcome of this assay for the following compound: `N#CC[C@H](C1CCCC1)n1cc(-c2ncnc3[nH]ccc23)cn1`
Resp: -1

Req: Continue with `CS(=O)(=O)c1ccc(C(=O)Nc2ccc(Cl)c(-c3ccccn3)c2)c(Cl)c1`
Resp: -1

----------
# Tested on: 3D7
# Assay method text: qHTS profiling for inhibitors of Plasmodium falciparum proliferation (AID 504749); further: nearly all actives have a fitted effect of over 60% in size
# Reported conditions: P. falciparum in erythrocytes, SYBR Green DNA, 72 h; series mostly up to 28.7 µM
Records with an inconclusive call do not appear. The source made the active and inactive calls. The call rests on the fitted dose curve; in most records, active means well fitted inhibition curve with a large enough effect; inconclusive means small, poorly fitted or top-dose-only effect; inactive means flat fitted curve, though single readings scatter.
Assign a class; possible classes are True = active, False = inactive

Record excerpt, results attached:
Molecule	Class name
Clc1cccc(Cl)c1NC1=NCCN1	False
CC(C)NCC(O)COc1ccc(COCCOC(C)C)cc1 (configuration not stated)	False
N=c1nc(N2CCCCC2)cc(N)n1O	False
C1COC(NC(C2CC2)C2CC2)=N1	False

Req: Give the logged outcome of this assay for the following molecule: `O=c1[nH]cnc2[nH]ncc12`
Resp: False

Req: Continue with OC(CN1CCC(Cc2ccc(F)cc2)CC1)c1ccc(Cl)cc1 (configuration not stated)
Resp: True

Req: Continue with `CCCCNc1cc(C(=O)O)cc(S(N)(=O)=O)c1Oc1ccccc1`
Resp: False

----------
# Assay method text: qHTS of pediatric cancer cell lines to identify multiple opportunities for drug repurposing: Confirmatory screen for U-2 OS cells (AID 1347122); further: nearly all actives have a fitted effect of over 65% in size
# Reported conditions: U-2 OS osteosarcoma cell viability; series mostly up to 45.9 µM
Records with an inconclusive call do not appear. Activity calls are given as the source filed them. Calls follow the shape of the dose curve; as a rule, active = well fitted cell-killing curve with a large enough effect; inconclusive = small, poorly fitted or top-dose-only effect; inactive = no such curve, though single readings can be large or run the other way.
Assign a class; possible classes are 1 = active, -1 = inactive

Record excerpt, results attached:
Compound	Class name
NC(=O)c1ccc(I)c([N+](=O)[O-])c1	-1
CCC(C)(C)C(=O)O[C@H]1C[C@@H](C)C=C2C=C[C@H](C)[C@H](CC[C@@H]3C[C@@H](O)CC(=O)O3)[C@H]21	1
Cc1c(CN2CCN(C(=O)C(C)C)CC2)sc2c(N3CCOCC3)nc(-c3cnc(N)nc3)nc12	1
CNCc1ccc(-c2[nH]c3cc(F)cc4c3c2CCNC4=O)cc1	-1

Req: Give the logged outcome of this assay for the following compound: `Cc1oncc1C(=O)Nc1ccc(C(F)(F)F)cc1`
Resp: -1

Req: Continue with `CO[C@@H]1[C@H](N(C)C(=O)c2ccccc2)C[C@H]2O[C@]1(C)n1c3ccccc3c3c4c(c5c6ccccc6n2c5c31)C(=O)NC4`
Resp: -1
